# assay_name: Example 4: pharmacokinetic drug-drug interaction of tipranavir SEDDS 1250 mg BID and ritonavir oral solution 200 mg BID
# Type: in vivo, human
# particulars: both sexes, human, plasma, oral, 1250 mg
measured_quantity: Tmax

[
  {
    "compound": "CCC[C@@]1(CCc2ccccc2)CC(O)=C([C@H](CC)c2cccc(NS(=O)(=O)c3ccc(C(F)(F)F)cn3)c2)C(=O)O1 (relative stereo) [Tipranavir]",
    "measured_quantity": "Tmax",
    "result": "2 h"
  }
]

----------
# assay_name: Example 4: pharmacokinetic drug-drug interaction of tipranavir SEDDS 1250 mg BID and ritonavir oral solution 200 mg BID
# Format: in vivo, human
# particulars: both sexes, human, plasma, oral, 1250 mg

[
  {
    "molecule": "CCC[C@@]1(CCc2ccccc2)CC(O)=C([C@H](CC)c2cccc(NS(=O)(=O)c3ccc(C(F)(F)F)cn3)c2)C(=O)O1 (relative stereo)",
    "measurement_unit": "µM·h",
    "AUC": 163
  }
]

----------
# assay_name: Table 1: tipranavir drug-drug interaction potential and routes of elimination of antiretrovirals
# particulars: drug-drug interaction with tipranavir
measured_quantity: Potential for Clinically Significant Interaction

[
  {
    "compound_structure_string": "CC(C)CN(C[C@@H](O)[C@H](Cc1ccccc1)NC(=O)O[C@H]1CCOC1)S(=O)(=O)c1ccc(N)cc1",
    "result": "High (and unfavorable)"
  },
  {
    "compound_structure_string": "CC(C)Nc1cccnc1N1CCN(C(=O)c2cc3cc(NS(C)(=O)=O)ccc3[nH]2)CC1",
    "result": "High (and unfavorable)"
  },
  {
    "compound_structure_string": "O=c1[nH]cnc2c1ncn2[C@H]1CC[C@@H](CO)O1",
    "result": "Low"
  }
]

----------
# assay_name: Study 2: pharmacokinetic drug-drug interaction of tipranavir 600 or 900 mg BID and ritonavir 100-500 mg BID, plasma levels by HPLC
# Format: in vivo, human
# particulars: both sexes, human, plasma, oral, Ritonavir 500 mg BID + Tipranavir 600 mg BID, median (range), N=7

[
  {
    "compound": "CC(C)c1nc(CN(C)C(=O)N[C@H](C(=O)N[C@@H](Cc2ccccc2)C[C@H](O)[C@H](Cc2ccccc2)NC(=O)OCc2cncs2)C(C)C)cs1 [Ritonavir, reference compound]",
    "AUC": "27 µg·h/mL"
  }
]

----------
# assay_name: Study 2: pharmacokinetic drug-drug interaction of tipranavir 600 or 900 mg BID and ritonavir 100-500 mg BID, plasma levels by HPLC
# Type: in vivo, human
# particulars: both sexes, human, plasma, oral, Tipranavir 900 mg BID + RTV 500 mg BID, median (range), n=6

[
  {
    "compound": "CCC[C@@]1(CCc2ccccc2)CC(O)=C([C@H](CC)c2cccc(NS(=O)(=O)c3ccc(C(F)(F)F)cn3)c2)C(=O)O1 (relative stereo) [Tipranavir]",
    "Cmax [µM]": 148
  }
]

----------
# assay_name: Study 2: pharmacokinetic drug-drug interaction of tipranavir 600 or 900 mg BID and ritonavir 100-500 mg BID, plasma levels by HPLC
# Assay type: in vivo, human
# particulars: both sexes, human, plasma, oral, 600 mg, Tipranavir 600 mg BID alone, median (range), n=7

[
  {
    "molecule": "CCC[C@@]1(CCc2ccccc2)CC(O)=C([C@H](CC)c2cccc(NS(=O)(=O)c3ccc(C(F)(F)F)cn3)c2)C(=O)O1 (relative stereo)",
    "Tmax / h": 2
  }
]

----------
# assay_name: Table 1: tipranavir drug-drug interaction potential and routes of elimination of antiretrovirals
# particulars: drug-drug interaction with tipranavir
measured_quantity: Potential for Clinically Significant Interaction

[
  {
    "compound_structure_string": "Cc1cn([C@H]2C[C@H](N=[N+]=[N-])[C@@H](CO)O2)c(=O)[nH]c1=O",
    "result": "Low"
  }
]

----------
# assay_name: Example 4: pharmacokinetic drug-drug interaction of tipranavir SEDDS 1250 mg BID and ritonavir oral solution 200 mg BID
# Assay type: in vivo, human
# particulars: both sexes, human, plasma, oral, 1250 mg; read-out: t½ (converted)

[
  {
    "compound": "CCC[C@@]1(CCc2ccccc2)CC(O)=C([C@H](CC)c2cccc(NS(=O)(=O)c3ccc(C(F)(F)F)cn3)c2)C(=O)O1 (relative stereo)",
    "half-life, h": 5.4
  }
]

----------
# assay_name: Study 2: pharmacokinetic drug-drug interaction of tipranavir 600 or 900 mg BID and ritonavir 100-500 mg BID, plasma levels by HPLC
# Assay type: in vivo, human
# particulars: both sexes, human, plasma, oral, 900 mg, Tipranavir 900 mg BID alone, median (range), n=6

[
  {
    "compound": "CCC[C@@]1(CCc2ccccc2)CC(O)=C([C@H](CC)c2cccc(NS(=O)(=O)c3ccc(C(F)(F)F)cn3)c2)C(=O)O1 (relative stereo)",
    "AUC, µM·h": 46.5
  }
]

----------
# assay_name: Study 1: pharmacokinetic drug-drug interaction of tipranavir 1350 mg BID and ritonavir 500 mg BID, plasma levels by HPLC
# Assay type: in vivo, human
# particulars: both sexes, human, plasma, oral, 500 mg; read-out: t½ (converted)

[
  {
    "molecule": "CC(C)c1nc(CN(C)C(=O)N[C@H](C(=O)N[C@@H](Cc2ccccc2)C[C@H](O)[C@H](Cc2ccccc2)NC(=O)OCc2cncs2)C(C)C)cs1 [Ritonavir, reference compound]",
    "half-life": "2.9 h"
  }
]

----------
# assay_name: Study 2: pharmacokinetic drug-drug interaction of tipranavir 600 or 900 mg BID and ritonavir 100-500 mg BID, plasma levels by HPLC
# Format: in vivo, human
# particulars: both sexes, human, plasma, oral, Tipranavir 900 mg BID + RTV 100 mg BID, median (range), n=6
# Experimental: Both groups received their assigned dose of tipranavir continuously throughout the study period. […] The pharmacokinetics of tipranavir when coadministered with ritonavir were evaluated and compared with baseline data, while the ritonavir data were compared to historical data. […] Detection was by UV absorbance at 260 nm. […]

[
  {
    "compound": "CCC[C@@]1(CCc2ccccc2)CC(O)=C([C@H](CC)c2cccc(NS(=O)(=O)c3ccc(C(F)(F)F)cn3)c2)C(=O)O1 (relative stereo) [Tipranavir]",
    "AUC": "368 µM·h"
  }
]

----------
# assay_name: Study 2: pharmacokinetic drug-drug interaction of tipranavir 600 or 900 mg BID and ritonavir 100-500 mg BID, plasma levels by HPLC
# Assay type: in vivo, human
# particulars: both sexes, human, plasma, oral, Ritonavir 500 mg BID + Tipranavir 900 mg BID, median (range), N=6

[
  {
    "compound": "CC(C)c1nc(CN(C)C(=O)N[C@H](C(=O)N[C@@H](Cc2ccccc2)C[C@H](O)[C@H](Cc2ccccc2)NC(=O)OCc2cncs2)C(C)C)cs1 [Ritonavir, reference compound]",
    "Cmax / ng/mL": 5800
  }
]

----------
# assay_name: Study 2: pharmacokinetic drug-drug interaction of tipranavir 600 or 900 mg BID and ritonavir 100-500 mg BID, plasma levels by HPLC
# Format: in vivo, human
# particulars: both sexes, human, plasma, oral, Tipranavir 900 mg BID + RTV 100 mg BID, median (range), n=6

[
  {
    "compound": "CCC[C@@]1(CCc2ccccc2)CC(O)=C([C@H](CC)c2cccc(NS(=O)(=O)c3ccc(C(F)(F)F)cn3)c2)C(=O)O1 (relative stereo)",
    "Tmax": "3 h"
  }
]

----------
# assay_name: Study 2: pharmacokinetic drug-drug interaction of tipranavir 600 or 900 mg BID and ritonavir 100-500 mg BID, plasma levels by HPLC
# Assay type: in vivo, human
# particulars: both sexes, human, plasma, oral, 900 mg, Tipranavir 900 mg BID alone, harmonic mean (range), n=6; read-out: t½ (converted)
# Experimental: Both groups received their assigned dose of tipranavir continuously throughout the study period. […] The pharmacokinetics of tipranavir when coadministered with ritonavir were evaluated and compared with baseline data, while the ritonavir data were compared to historical data. […] Detection was by UV absorbance at 260 nm. […]
measured_quantity: half-life (h)

[
  {
    "compound": "CCC[C@@]1(CCc2ccccc2)CC(O)=C([C@H](CC)c2cccc(NS(=O)(=O)c3ccc(C(F)(F)F)cn3)c2)C(=O)O1 (relative stereo)",
    "measurement_unit": "h",
    "quantitative_readout": 4.2
  }
]

----------
# assay_name: Study 2: pharmacokinetic drug-drug interaction of tipranavir 600 or 900 mg BID and ritonavir 100-500 mg BID, plasma levels by HPLC
# Type: in vivo, human
# particulars: both sexes, human, plasma, oral, Tipranavir 600 mg BID + RTV 100 mg BID, median (range), n=7
measured_quantity: AUC (µM·h)

[
  {
    "molecule": "CCC[C@@]1(CCc2ccccc2)CC(O)=C([C@H](CC)c2cccc(NS(=O)(=O)c3ccc(C(F)(F)F)cn3)c2)C(=O)O1 (relative stereo)",
    "quantitative_readout": 297
  }
]
